Where do the numbers come from? From patent US20260116991A1.

# Target Under Test: biotinylated labeled human GPC3 protein (produced in-house) (human, UniProt P51654 25-559, limits assumed, biotinylated (Dojindo, Cat. No. LK03); sites not stated)
# Assay Details: ELISA, biotinylated human GPC3 protein
// label = TRUE if OD450 at 0.0008 nM is not less than 0.1 OD450, otherwise FALSE

# example entries with known answers
hAb003LH3L1 (antibody, human IgG1, V domains shown, Humanized F2.154.1; VH H3 + VL L1; expressed as human IgG1) VH: EVQLVQSGAEVKKPGSSVKVSCKASGYRFTDYEMHWVRQAPGQGLEWMGTIDPETGNTAYTQKFMDRVTLTADKSTSTAYMELSSLRSEDTAVYYCTRGYSFTYWGQGTLVTVSS VL: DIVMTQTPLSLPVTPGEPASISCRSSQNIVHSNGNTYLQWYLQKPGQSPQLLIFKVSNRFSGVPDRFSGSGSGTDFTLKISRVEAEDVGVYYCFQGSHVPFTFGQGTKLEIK: TRUE
hAb007LH3L1a (antibody, human IgG1, V domains shown, Humanized F3.81.19; VH H3 + VL L1a; expressed as human IgG1) VH: EVQLVQSGAEVKKPGSSVKVSCKASGYTFTDYEMHWVRQAPGQGLEWMGTIDPETGNTAYNQKFKGRVTLTADKSTSTAYMELSSLRSEDTAVYYCTRPYSLTYWGQGTLVTVSS VL: DIVMTQTPLSLPVTPGEPASISCRSSQSFVHSDGDTYLQWYLQKPGQSPQLLIYKVSNRFSGVPDRFSGSGSGTDFTLKISRVEAEDVGVYYCFQGSHVPYTFGQGTKLEIK: FALSE
hAb006LH1L1 (antibody, human IgG1, V domains shown, Humanized F3.38.7; VH H1 + VL L1; expressed as human IgG1) VH: EVQLVQSGAEVKKPGSSVKVSCKASGYTFSDYEIHWVRQAPGQGLEWMGAIDPKTGNTAYNQKFMGRVTITADKSTSTAYMELSSLRSEDTAVYYCTRYFSFAYWGQGTLVTVSS VL: DIVMTQTPLSLPVTPGEPASISCRSSQTFVHSNGNTYLQWYLQKPGQSPQLLIYKVSNRFSGVPDRFSGSGSGTDFTLKISRVEAEDVGVYYCFQGSHVPYTFGQGTKLEIK: TRUE
hAb003LH3L1b (antibody, human IgG1, V domains shown, Humanized F2.154.1; VH H3 + VL L1b; expressed as human IgG1) VH: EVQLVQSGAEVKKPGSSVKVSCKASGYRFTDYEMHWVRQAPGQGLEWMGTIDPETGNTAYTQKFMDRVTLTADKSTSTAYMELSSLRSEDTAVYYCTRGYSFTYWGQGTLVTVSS VL: DIVMTQTPLSLPVTPGEPASISCRSSQNIVHSNRNTYLQWYLQKPGQSPQLLIFKVSNRFSGVPDRFSGSGSGTDFTLKISRVEAEDVGVYYCFQGSHVPFTFGQGTKLEIK: TRUE

# next binder below
Dear colleague, could you confirm whether hAb005LH1L1 (antibody, human IgG1, V domains shown, Humanized F3.54.12; VH H1 + VL L1; expressed as human IgG1) VH: EVQLVQSGAEVKKPGASVKVSCKASGYTFTDYEMHWVRQAPGQGLEWMGAIDPETGNTAYIQKFKGRVTMTTDKSTSTAYMELRSLRSDDTAVYYCTRFYSYSHWGQGTTVTVSS VL: DIVMTQTPLSLPVTPGEPASISCRSSQSLVHSNGNTYLHWYLQKPGQSPQLLIYKVSNRFSGVPDRFSGSGSGTDFTLKISRVEAEDVGVYYCSQNTHVPPTFGGGTKVEIK has OD450 at 0.0008 nM at or above 0.1 OD450?
FALSE
